- target or test system: Bromodomain-containing protein 2 (Homo sapiens)
- Sequence (P25440 whole entry, the tested form may be a part, canonical isoform): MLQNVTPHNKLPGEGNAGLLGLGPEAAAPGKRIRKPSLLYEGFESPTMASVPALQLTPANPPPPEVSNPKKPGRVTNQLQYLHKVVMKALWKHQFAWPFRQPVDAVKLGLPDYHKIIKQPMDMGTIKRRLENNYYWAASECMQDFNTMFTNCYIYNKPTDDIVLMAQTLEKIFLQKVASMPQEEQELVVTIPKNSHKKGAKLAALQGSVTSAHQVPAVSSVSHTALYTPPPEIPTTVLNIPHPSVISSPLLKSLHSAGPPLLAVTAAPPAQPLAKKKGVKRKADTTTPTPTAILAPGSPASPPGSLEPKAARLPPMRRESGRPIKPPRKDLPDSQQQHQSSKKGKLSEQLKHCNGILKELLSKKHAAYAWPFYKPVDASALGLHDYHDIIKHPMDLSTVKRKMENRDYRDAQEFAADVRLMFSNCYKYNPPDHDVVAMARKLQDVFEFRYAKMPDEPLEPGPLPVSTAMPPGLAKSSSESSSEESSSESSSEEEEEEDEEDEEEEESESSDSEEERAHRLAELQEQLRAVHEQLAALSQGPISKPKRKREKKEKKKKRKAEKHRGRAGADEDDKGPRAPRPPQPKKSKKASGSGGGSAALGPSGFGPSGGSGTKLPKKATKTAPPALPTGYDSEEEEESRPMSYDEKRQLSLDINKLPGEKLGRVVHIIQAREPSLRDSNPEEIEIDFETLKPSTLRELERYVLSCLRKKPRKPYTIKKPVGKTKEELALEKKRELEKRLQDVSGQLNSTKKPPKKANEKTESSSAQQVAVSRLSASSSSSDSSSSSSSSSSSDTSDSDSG
- measurement notes: Binding affinity to human partial length BRD2 bromodomain 2 isoform 1 (E348 to D455 residues) expressed in bacterial expression system by BROMOscan assay
measure name: Kd (µM)
The answer is to be given in µM; state only the numeric part.

Task item: Record request: Kd value, item `C/C=C/Cn1cc(-c2ccc(C(C)(C)O)cc2OC)c2cc[nH]c2c1=O`
Reply: 3.3

More entries:
Task item: Value lookup for Kd; key = `C/C=C/Cn1cc(-c2ccc(C(=O)N3CCOCC3)cc2)c2cc[nH]c2c1=O`
Reply: 4.3

###

- Tested on: HCC1143
- measurement notes: Cytotoxicity against human HCC1143 cells measured after 8 days
- Format: functional, cell-based
- condition label: HCC1143, 192 h
Listing of recorded IC50 by entry.
All answers are understood in µM, so give the number only.

Task item: May I ask what IC50 has been recorded for `C/C=C/Cn1cc(-c2ccc(C(C)(C)O)cc2OC)c2cc[nH]c2c1=O` ?
Reply: 20

***
Task item: Bench note: what IC50 did `C/C=C/Cn1cc(-c2cc(OC)c(C(=O)N3CCOCC3)cc2OC)c2cc(C)[nH]c2c1=O` show?
Reply: 2

Task item: # lookup: IC50 of `C/C=C/Cn1cc(-c2ccc(C(=O)N3CCOCC3)cc2)c2cc[nH]c2c1=O`
Reply: 20

###

- System: HCC1954
- measurement notes: Cytotoxicity against human HCC1954 cells measured after 3 days
- Assay type: functional, cell-based
- condition label: HCC1954, 72 h
measure name: IC50 (µM)
Your answer should be a plain number; it is taken to be in µM.

Task item: Look up IC50: `C/C=C/Cn1cc(-c2cc(OC)c(C(=O)N3CCOCC3)cc2OC)c2cc(C)[nH]c2c1=O`
Reply: 5

###

- measurement notes: Cytotoxicity against human VMRC-LCD cells measured after 8 days
- Assay type: functional, cell-based
- condition label: 192 h
measure name: pIC50
Note on pIC50: it is the negative log10 of concentration, concentration in mol/L.

Here's what some known entries look like.
Task item: Name the reported pIC50 value associated with the compound `C/C=C/Cn1cc(-c2ccc(C(C)(C)O)cc2OC)c2cc[nH]c2c1=O`
Reply: 4.70

Task item: GET /values?readout=pIC50&item= `C/C=C/Cn1cc(-c2ccc(C(=O)N3CCOCC3)cc2)c2cc[nH]c2c1=O`
Reply: 4.70

# context switch: different compound, same pIC50
Task item: Would you mind telling me what pIC50 value was observed for `C/C=C/Cn1cc(-c2cc(OC)c(C(=O)N3CCOCC3)cc2OC)c2cc(C)[nH]c2c1=O` ?
Reply: 5.70

###

- Tested on: HT
- measurement notes: Cytotoxicity against human HT cells measured after 8 days
- Type: functional, cell-based
- condition label: 192 h
measure name: pIC50
Notebook: values listed as pIC50 are -log10 of the concentration (mol/L).

Take a look at these entries with their results.
Task item: What value of pIC50 has been reported for the following compound? `C/C=C/Cn1cc(-c2cc(OC)c(C(=O)N3CCOCC3)cc2OC)c2cc(C)[nH]c2c1=O`
Reply: 5.70

Task item: Find the recorded pIC50 belonging to `C/C=C/Cn1cc(-c2ccc(C(=O)N3CCOCC3)cc2)c2cc[nH]c2c1=O` and report it.
Reply: 4.70

Field: next compound
Task item: So what does the record say about pIC50 for `C/C=C/Cn1cc(-c2ccc(C(C)(C)O)cc2OC)c2cc[nH]c2c1=O` ?
Reply: 4.70

###

- measurement notes: Cytotoxicity against human SKG-IIIb cells measured after 8 days
- Format: functional, cell-based
- condition label: 192 h
measure name: pIC50
Note on units: pIC50 is unitless, being -log10 of a concentration expressed in mol/L.

Task item: Name the recorded pIC50 for `C/C=C/Cn1cc(-c2ccc(C(=O)N3CCOCC3)cc2)c2cc[nH]c2c1=O` .
Reply: 4.70

Let us move to another entry and its pIC50.
Task item: # input molecule: `C/C=C/Cn1cc(-c2ccc(C(C)(C)O)cc2OC)c2cc[nH]c2c1=O` ; wanted: its pIC50
Reply: 4.70

###

- measurement notes: Cytotoxicity against human HEC-6 cells measured after 8 days
- Type: functional, cell-based
- condition label: HEC-6, 192 h
measure name: pIC50
Notebook: values listed as pIC50 are -log10 of the concentration (mol/L).

Task item: What does the record list as pIC50 for `C/C=C/Cn1cc(-c2ccc(C(=O)N3CCOCC3)cc2)c2cc[nH]c2c1=O` ?
Reply: 4.70

Task item: Recorded pIC50 for `C/C=C/Cn1cc(-c2ccc(C(C)(C)O)cc2OC)c2cc[nH]c2c1=O` , please?
Reply: 4.70

###

- Test system: HepG2
- measurement notes: Cytotoxicity against human HepG2 cells measured after 3 days
- Format: functional, cell-based
- condition label: HepG2, 72 h
measure name: pIC50
Expect pIC50 as a plain number equal to -log10 of the molar concentration.

Task item: Reported pIC50 for `C/C=C/Cn1cc(-c2cc(OC)c(C(=O)N3CCOCC3)cc2OC)c2cc(C)[nH]c2c1=O` : what is it?
Reply: 5.30

###

- Tested on: G-402
- measurement notes: Cytotoxicity against human G-402 cells measured after 8 days
- Type: functional, cell-based
- condition label: G-402, 192 h
measure name: IC50 (µM)
Answer format: numeric, µM implied, no suffix.

Task item: Field request: IC50 | item: `C/C=C/Cn1cc(-c2ccc(C(=O)N3CCOCC3)cc2)c2cc[nH]c2c1=O`
Reply: 4.76

Now examine the next entry.
Task item: Can you share its IC50? I mean this molecule: `C/C=C/Cn1cc(-c2ccc(C(C)(C)O)cc2OC)c2cc[nH]c2c1=O`
Reply: 11.7

###

Each entry below lists one item and its recorded IC50 value.
- Tested on: EB2
- measurement notes: Cytotoxicity against human EB2 cells measured after 8 days
- Assay type: functional, cell-based
- condition label: EB2, 192 h
Enter your answer as a number in µM; do not include the unit.

Here are 2 compounds together with their reported answers.
Task item: Reported IC50 for `C/C=C/Cn1cc(-c2ccc(C(C)(C)O)cc2OC)c2cc[nH]c2c1=O` : what is it?
Reply: 20

Task item: Sample `C/C=C/Cn1cc(-c2cc(OC)c(C(=O)N3CCOCC3)cc2OC)c2cc(C)[nH]c2c1=O` — what was its IC50?
Reply: 2

Query compound follows.
Task item: # input compound: `C/C=C/Cn1cc(-c2ccc(C(=O)N3CCOCC3)cc2)c2cc[nH]c2c1=O` ; wanted: its IC50
Reply: 20

###

- Test system: SU-DHL-1
- measurement notes: Cytotoxicity against human SU-DHL-1 cells measured after 3 days
- Type: functional, cell-based
- condition label: SU-DHL-1, 72 h
measure name: pIC50
Remember, pIC50 is on a log scale: it is -log10 of the molar concentration.

Task item: Lab request: please report pIC50 under test system SU-DHL-1 for `C/C=C/Cn1cc(-c2cc(OC)c(C(=O)N3CCOCC3)cc2OC)c2cc(C)[nH]c2c1=O`
Reply: 5.30

###

- measurement notes: Cytotoxicity against human JHH-2 cells measured after 8 days
- Type: functional, cell-based
- condition label: JHH-2, 192 h
measure name: IC50 (µM)
// note: answer is a bare numeric in µM

Task item: Look up IC50 for this molecule: `C/C=C/Cn1cc(-c2ccc(C(=O)N3CCOCC3)cc2)c2cc[nH]c2c1=O`
Reply: 20

Proceeding to the next molecule to report its IC50.
Task item: Requested field: IC50. Item: `C/C=C/Cn1cc(-c2ccc(C(C)(C)O)cc2OC)c2cc[nH]c2c1=O`
Reply: 20

###

- Test system: CHL-1
- measurement notes: Cytotoxicity against human CHL-1 cells measured after 8 days
- Type: functional, cell-based
- condition label: CHL-1, 192 h
Let's look at some compounds and their measured IC50.

Task item: Param item = `C/C=C/Cn1cc(-c2ccc(C(=O)N3CCOCC3)cc2)c2cc[nH]c2c1=O` ; retrieve measured IC50.
Reply: 15.2 µM

Now for another entry.
Task item: Need IC50, item `C/C=C/Cn1cc(-c2ccc(C(C)(C)O)cc2OC)c2cc[nH]c2c1=O`
Reply: 15.2 µM

###

Reported IC50 values follow for various compounds
- Tested on: Hs 683
- measurement notes: Cytotoxicity against human Hs 683 cells measured after 8 days
- Assay type: functional, cell-based
- condition label: Hs 683, 192 h
Numbers only here, please. The scale is µM.

Task item: IC50 for `C/C=C/Cn1cc(-c2ccc(C(=O)N3CCOCC3)cc2)c2cc[nH]c2c1=O` ?
Reply: 20

More entries:
Task item: Need IC50 of `C/C=C/Cn1cc(-c2ccc(C(C)(C)O)cc2OC)c2cc[nH]c2c1=O` , thanks.
Reply: 20
